Data origin, for the record: PubChem BioAssay (NCI)

assay: NCI Yeast Anticancer Drug Screen. Data for the rad50 strain (AID 155);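 note: 0% = growth of vehicle-only cultures of the same strain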; details: S. cerevisiae rad50 strain growth inhibition, active compounds read high; at 50.0 µM unless noted
About 79,000 compounds went through this panel and 15% of them were active in at least one assay; those are over-represented in the sample as a whole. The source made the active and inactive calls. Cut-off read from the data, not from the text of the source: active = growth inhibition above about 70%; inactive = the rest.
Would you kindly list growth inhibition for each of these compounds?

{"columns": ["Compound", "growth inhibition"],
 "data": [
  ["Brc1cccc(C=NC23CC4CC(CC(C4)C2)C3)c1", "13.7% (inactive)"],
  ["CCOC(=O)C(Cc1cc(N)c(Oc2ccc(OC)cc2)c(N)c1)NC(C)=O (stereo not drawn)", "-16.1% (inactive)"]
]}

growth inhibition lookup needed for CC(C)N(CC(C)(C)O)C(=O)c1ccccc1 , thanks.
-5.35% (inactive)

###

test: NCI Yeast Anticancer Drug Screen. Data for the sgs1 mgt1 strain (AID 161);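 note: 0% = growth of cultures given vehicle only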; conditions: S. cerevisiae sgs1 mgt1 strain; at 50.0 µM unless noted
Compounds without any hit were thinned out: in the full panel of roughly 79,000, 15% have a hit. The source made the active and inactive calls. Cut-off read from the data, not from the text of the source: active = growth inhibition above about 70%; inactive = the rest.
Tick one outcome: T = active, F = inactive

Worked examples, 3 compounds total:
{"columns": ["Compound", "Group Label"],
 "data": [
  ["NC(N)=N/N=C(\\c1ccc(C(F)(F)F)cc1)c1ccc(Cl)c(Cl)c1", "T"],
  ["CC(=O)c1ccc2c(c1)NC(=O)CC(C)N2 (configuration not stated)", "F"],
  ["O=C(O)c1ccccc1S(=O)Cc1ccc(Br)cc1 (configuration not stated)", "F"]
]}

Please let me know the test result on file for O=C(Nc1ccc(Cl)cc1)NC1OC(=O)C(Cl)=C1Cl (configuration not stated) .
F

Please let me know the test result on file for O=C(Nc1cccc(Cl)c1)Oc1c([N+](=O)[O-])cc(Cl)cc1[N+](=O)[O-] .
F

Please let me know the test result on file for NC(=O)C1CC1 .
F

Please let me know the test result on file for CC(C)CCC[C@@H](C)C1CCC2[C@@H]3CCC4C[C@@H](CCC=C(c5cc(Cl)c(O)c(C(=O)O)c5)c5cc(Cl)c(O)c(C(=O)O)c5)CC[C@]4(C)C3CC[C@@]21C (some centres not stated) .
F

Please let me know the test result on file for CCN(CC)CCCC(C)Nc1ncnc2ccccc12 (configuration not stated) .
F

Please let me know the test result on file for CC1=NC(=Cc2cc(Br)cc(Br)c2)C(=O)N1n1c(-c2ccccc2)nc2ccccc2c1=O .
F

Please let me know the test result on file for CCCCC/C(C=O)=C\c1ccccc1 .
F

Please let me know the test result on file for CN(C)c1ccc(/C=C/C=C2\C=Cc3ccccc32)cc1 .
F

Please let me know the test result on file for S=c1nc2ccccn2c(=S)n1-c1ccccn1 .
F

Please let me know the test result on file for CCOC(=O)c1nnsc1N/N=C\c1ccc([N+](=O)[O-])cc1 .
F

###

experiment: NCI Yeast Anticancer Drug Screen. Data for the sgs1 mgt1 strain (AID 161);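 note: 0% = growth of cultures given vehicle only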; details: S. cerevisiae sgs1 mgt1 strain, active compounds read high; at 50.0 µM unless noted
About 79,000 compounds went through this panel and 15% of them were active in at least one assay; those are over-represented in the sample as a whole.
Quantity Measured: growth inhibition (%)
One number for each entry, in %.

{"columns": ["Compound", "Quantity Measured", "Reported"],
 "data": [
  ["C=C(C)c1ccc(C(C)C)cc1", "growth inhibition", -24.6]
]}

Provide growth inhibition for all items below, preserving their order.
1. CCCCSc1ncnc2nc[nH]c12
2. Cc1ncc(CN=Cc2ccc(Cl)cc2)c(N)n1
3. COC(=O)C(=O)C1(c2ccccc2)C(=O)C(c2ccccc2)=CC1O (centres undefined)
4. O=c1[nH][nH]c2ccccc12
5. CC(=O)CC(=O)Nc1ccc(-c2ccc(NC(=O)CC(C)=O)c(Cl)c2)cc1Cl
6. CC1Nc2ccccc2C1C (centres undefined)
7. NCc1ccc(F)cc1
8. CC(=O)c1cccc(NC(=O)Oc2cc(=O)oc3ccccc23)c1

[-9.05, -9.45, 10.1, 13.1, -10.2, -62.1, 32, 12.4]

###

Would you kindly list growth inhibition for each of these compounds?
test: NCI Yeast Anticancer Drug Screen. Data for the mlh1 rad18 strain (AID 175); details: S. cerevisiae mlh1 rad18 strain growth inhibition, active compounds read high; at 50.0 µM unless noted
The panel holds about 79,000 compounds, 15% with a hit somewhere; the sample as a whole holds those more often.
Give bare numbers, in %.

Worked examples, 4 compounds total:
{"columns": ["Compound", "Endpoint Unit", "Reported"],
 "data": [
  ["ClN(Cl)c1nc(-c2ccccc2)nc(N(Cl)Cl)n1", "%", 31.5],
  ["CCOC(=O)/C(C)=C\\C=C(\\C)CCC=C(C)C", "%", 15.4],
  ["CC(C)=C1C2C(C13C(=O)OC(C)(C)OC3=O)C2(C)C (stereo unspecified)", "%", -9.2],
  ["c1ccc2c(c1)ccc1c[n+]3ccccc3cc12", "%", 61.9]
]}

Provide growth inhibition for all items below, preserving their order.
1. O=[N+]([O-])c1ccc(Sc2ncnc3c2ncn3C2OC(CO)C(O)C2O)c2nonc12 (stereo unspecified)
2. O=C1c2ccccc2CCC1c1ccccc1 (stereo unspecified)
3. CCN(CC)C(=S)Oc1cc(Cl)c(Cl)cc1Cl
4. O=c1c2cc(O)c(O)cc2oc2cc(O)c(C3OC(CO)C(O)C(O)C3O)c(O)c12 (stereo unspecified)
5. COc1cc(C(=O)N2CCOC23CCN(Cc2ccccc2)CC3)cc(OC)c1OC
6. NC(=O)C(NCc1ccccc1)c1ccccc1 (stereo unspecified)

1. 33.2
2. -23.4
3. 21.2
4. -77.1
5. 2.7
6. 2.6

###

Would you kindly list growth inhibition for each of these compounds?
Assay: NCI Yeast Anticancer Drug Screen. Data for the cln2 rad14 strain (AID 165);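 note: 0% = growth equal to vehicle treated cultures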
Conditions: S. cerevisiae cln2 rad14 strain, active compounds read high; at 50.0 µM unless noted
Description: Growth inhibition of yeast strains with defined genetic alterations is measured as a screen for potential anti-cancer activity. Selected strains with alterations in DNA damage repair or cell cycle control were exposed to compounds and growth inhibition was measured relative to vehicle treated controls. The strain used in this assay is cln2 rad14
About 79,000 compounds went through this panel and 15% of them were active in at least one assay; those are over-represented in the sample as a whole.
Numbers only, in %.

Provide growth inhibition for all items below, preserving their order.
1. COc1ccc2c(c1)[n+](=O)c(C(=O)C/C(=N/NC(=O)c1ccccc1O)C(=O)Nc1ccc(Cl)c(C(F)(F)F)c1)c(C)n2[O-]
2. ClC(=Nc1cccc2ccccc12)N(c1ccccc1)c1ccccc1
3. CN(C)CCNC(=O)Nc1cccc2ccccc12
4. O=C(O)/C=C\C(=O)Nc1ccc2c(c1)Cc1cc(O)ccc1-2
5. Cc1ccc(C(=O)C[n+]2ccc3ccccc3c2)c(O)c1

1. 8.75
2. 3.8
3. 16.6
4. 25.7
5. -51.9

###

assay: NCI Yeast Anticancer Drug Screen. Data for the mec2-1 strain (AID 157); conditions: S. cerevisiae mec2-1 strain, active compounds read high; at 50.0 µM unless noted
About 79,000 compounds went through this panel and 15% of them were active in at least one assay; those are over-represented in the sample as a whole.
Quantity Measured: growth inhibition (%)
Answers are plain numbers, in %.

Worked examples, 4 compounds total:
{"columns": ["Compound", "growth inhibition (%)"],
 "data": [
  ["Cc1cc(C(c2ccccc2)n2c3ccccc3c3ccccc32)cc(C)c1O (stereo not given)", 11.3],
  ["O=C1C(CN2CCCC2)CCCC1CN1CCCC1 (stereo not given)", -29.4],
  ["CC(C)OC(=O)CC1NS(=O)(=O)c2ccccc21 (stereo not given)", 1],
  ["C/C(=C/CC1=C(O)c2ccccc2C(=O)C1=O)CO", 32.9]
]}

Proceeding to the next compound to report its growth inhibition.
growth inhibition lookup needed for Cc1cccc(CO)c1NC(=O)NCCCl , thanks.
-12.2

###

Would you kindly list growth inhibition for each of these compounds?
experiment: NCI Yeast Anticancer Drug Screen. Data for the mec2-1 strain (AID 157); settings: S. cerevisiae mec2-1 strain, active compounds read high; at 50.0 µM unless noted
Compounds without any hit were thinned out: in the full panel of roughly 79,000, 15% have a hit.
Give bare numbers, in %.

{"columns": ["Compound", "growth inhibition [%]"],
 "data": [
  ["CN(C)CC(O)(C(=O)c1ccccc1)c1ccccc1 (stereo not drawn)", -9.8]
]}

Provide growth inhibition for all items below, preserving their order.
1. O=C(CNC(=O)C(Cc1ccccc1)N1C(=O)c2ccccc2C1=O)Nc1ccccc1 (stereo not drawn)
2. Cc1cc(N(CCC#N)CCC#N)ccc1N=Nc1ccc(S(N)(=O)=O)cc1
3. Cc1c([N+](=O)[O-])cc(C(C)(C)C)c(OC(=O)c2ccccc2)c1[N+](=O)[O-]
4. [N-]=[N+]=CC(=O)C1OC12C1CC3CC(C1)CC2C3 (stereo not drawn)

1. -1.55
2. -9.45
3. 24.7
4. -5.85

Provide growth inhibition for all items below, preserving their order.
1. CCCCCCCCCCCCCCCCCCCCCCCCCCBr
2. Fc1ccccc1-c1nn2c(C34CC5CC(CC(C5)C3)C4)nnc2s1
3. CC(C)COC(=O)/C=C/c1ccccc1

0.8
-33.1
16.6
